List of pIC50 values.
tested.on: human TLR7 (Homo sapiens)
Sequence (Q9NYK1 27-1049): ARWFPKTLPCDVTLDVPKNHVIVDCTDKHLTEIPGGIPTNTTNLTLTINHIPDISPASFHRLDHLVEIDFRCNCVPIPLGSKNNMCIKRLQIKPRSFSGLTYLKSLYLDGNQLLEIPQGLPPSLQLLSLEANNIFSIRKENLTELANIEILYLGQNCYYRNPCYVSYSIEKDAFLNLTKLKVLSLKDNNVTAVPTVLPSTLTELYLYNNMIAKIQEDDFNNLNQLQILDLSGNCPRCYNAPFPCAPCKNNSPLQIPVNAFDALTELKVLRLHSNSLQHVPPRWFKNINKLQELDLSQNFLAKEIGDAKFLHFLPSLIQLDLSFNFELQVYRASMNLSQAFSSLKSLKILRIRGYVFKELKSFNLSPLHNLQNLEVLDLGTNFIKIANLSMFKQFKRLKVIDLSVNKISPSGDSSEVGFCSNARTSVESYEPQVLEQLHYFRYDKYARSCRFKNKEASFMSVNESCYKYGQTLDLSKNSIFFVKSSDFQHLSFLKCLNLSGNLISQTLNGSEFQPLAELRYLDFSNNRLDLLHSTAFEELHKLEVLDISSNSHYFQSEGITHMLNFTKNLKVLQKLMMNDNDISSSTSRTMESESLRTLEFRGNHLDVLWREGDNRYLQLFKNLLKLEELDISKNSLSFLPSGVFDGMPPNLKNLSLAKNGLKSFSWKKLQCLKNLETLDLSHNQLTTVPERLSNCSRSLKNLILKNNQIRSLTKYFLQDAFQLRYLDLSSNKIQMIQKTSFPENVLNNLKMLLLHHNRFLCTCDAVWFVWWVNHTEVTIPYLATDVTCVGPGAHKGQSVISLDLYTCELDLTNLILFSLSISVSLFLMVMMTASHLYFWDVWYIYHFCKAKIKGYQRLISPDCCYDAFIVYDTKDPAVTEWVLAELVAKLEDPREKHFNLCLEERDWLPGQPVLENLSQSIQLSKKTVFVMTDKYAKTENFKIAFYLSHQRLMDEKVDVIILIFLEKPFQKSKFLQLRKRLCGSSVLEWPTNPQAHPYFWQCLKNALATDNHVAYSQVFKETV
assay.summary: HEK293-Blue-hTLR-7 cells assay (SEAP reporter, R848 stimulation)
measurement.parameters: HEK293-Blue-hTLR7 cells, R848 ligand, 20 hrs incubation; read-out: HEK/hTLR7 IC50
Description: The following tests were carried out in order to determine the activity of the compounds of formula (I) in HEK293-Blue-hTLR-7/8/9 cells assay. A stable HEK293-Blue-hTLR-7 cell line was purchased from InvivoGen (Cat.#: hkb-htlr7, San Diego, California, USA). These cells were originally designed for studying the stimulation of human TLR7 by monitoring the activation of NF-κB. […]
The value called pIC50 is obtained by taking minus log10 of the concentration in mol/L.

Example entries begin here.
> print(dat)
                                   compound  quantitative.readout
1  C[C@@H]1CN(c2ccc(C#N)c3ncccc23)C[C@H](C)N1Cc1ccc(N2CCN(C(=O)C3CCCN3)CC2)cn1 (stereo partly shown)                  7.16
2  C[C@@H]1CN(c2ccc(C#N)c3ncccc23)C[C@H](C)N1Cc1ccc(N2CCN(C(=O)CN(C)C)CC2)cn1                  7.30
3  C[C@@H]1CN(c2ccc(C#N)c3ncccc23)C[C@@H](C)N1Cc1ccc(N2CCNCC2)cc1                  7.06

Reported pIC50 of C[C@@H]1CN(c2ccc(C#N)c3ncccc23)C[C@H](C)N1Cc1ccc(N2CCNCC2)cc1 : 7.28

Ref: patent US11952363B2
